Biological target: UniProt:P25090
Experiment: Agonist activity at FPR2 in human neutrophils assessed as induction of calcium mobilization measured every 5 secs for 240 secs by Fluo-4-AM dye based fluorometric method relative to fMLF
value.kind: Efficacy (%)
Answers are plain numbers, in %.

// solved cases for Efficacy follow
• N#Cc1ccc(C[C@@H](NC(=O)Nc2ccc(F)cc2)C(=O)NCC2(c3ccc(F)c(Cl)c3)CC2)cc1 = 95
• O=C(Nc1ccc([N+](=O)[O-])cc1)N[C@@H](Cc1cccnc1)C(=O)NCC1(c2ccccc2)CC1 = 65
• N#Cc1ccc(C[C@H](NC(=O)Nc2ccc(F)cc2)C(=O)NCC2(c3ccc(F)c(Cl)c3)CC2)cc1 = 130
• COc1ccc(NC(=O)N[C@H](Cc2ccc(C#N)cc2)C(=O)NCC2(c3ccc(F)c(Cl)c3)CC2)cc1 = 115

Working through the 3 compounds below one at a time, give Efficacy for each.
1. N#Cc1ccc(C[C@H](NC(=O)Nc2ccc([N+](=O)[O-])cc2)C(=O)NCC2(c3ccccc3)CC2)cc1
2. N#Cc1ccc(C[C@@H](NC(=O)Nc2ccc([N+](=O)[O-])cc2)C(=O)NCC2(c3ccccc3)CC2)cc1
3. O=C(Nc1ccc([N+](=O)[O-])cc1)N[C@H](Cc1cccnc1)C(=O)NCC1(c2ccccc2)CC1

115
150
90

Answer briefly: Efficacy recorded on UniProt:P25090 for `COc1ccc(NC(=O)N[C@@H](Cc2ccc(C#N)cc2)C(=O)NCC2(c3ccc(F)c(Cl)c3)CC2)cc1`
155

###

Target: N-formyl peptide receptor 2 (Homo sapiens)
Sequence (P25090 whole entry): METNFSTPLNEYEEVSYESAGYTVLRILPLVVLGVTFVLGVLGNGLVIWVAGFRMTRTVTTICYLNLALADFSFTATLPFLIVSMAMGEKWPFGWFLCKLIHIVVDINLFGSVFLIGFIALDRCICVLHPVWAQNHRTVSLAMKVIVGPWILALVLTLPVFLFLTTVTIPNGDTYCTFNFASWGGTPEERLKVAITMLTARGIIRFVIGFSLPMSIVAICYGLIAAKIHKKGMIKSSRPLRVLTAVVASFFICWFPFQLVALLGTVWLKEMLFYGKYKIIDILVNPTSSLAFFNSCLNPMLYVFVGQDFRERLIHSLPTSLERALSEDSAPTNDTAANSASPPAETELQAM
Assay: Agonist activity at FPR2 in human neutrophils assessed as induction of calcium mobilization measured every 5 secs for 240 secs by Fluo-4-AM dye based fluorometric method
Format: functional
Settings: read-out: EC50
value.kind: pEC50
One number for each entry, as −log10 of the molar value.

• COc1ccc(NC(=O)N[C@@H](Cc2ccc(C#N)cc2)C(=O)NCC2(c3ccc(F)c(Cl)c3)CC2)cc1 = 6.48
• N#Cc1ccc(C[C@H](NC(=O)Nc2ccc([N+](=O)[O-])cc2)C(=O)NCC2(c3ccccc3)CC2)cc1 = 5.60
• N#Cc1ccc(C[C@H](NC(=O)Nc2ccc(F)cc2)C(=O)NCC2(c3ccc(F)c(Cl)c3)CC2)cc1 = 6.72
• COc1ccc(NC(=O)N[C@H](Cc2ccc(C#N)cc2)C(=O)NCC2(c3ccc(F)c(Cl)c3)CC2)cc1 = 6.14
• N#Cc1ccc(C[C@@H](NC(=O)Nc2ccc(F)cc2)C(=O)NCC2(c3ccc(F)c(Cl)c3)CC2)cc1 = 5.89
• N#Cc1ccc(C[C@@H](NC(=O)Nc2ccc([N+](=O)[O-])cc2)C(=O)NCC2(c3ccccc3)CC2)cc1 = 5.39
• Cc1ccc(C2(CNC(=O)[C@H](Cc3ccc(C#N)cc3)NC(=O)Nc3ccc(F)cc3)CC2)cc1F = 5.77

Continue with the next compound.
Supply measured pEC50 of `O=C(Nc1ccc([N+](=O)[O-])cc1)N[C@H](Cc1cccnc1)C(=O)NCC1(c2ccccc2)CC1` in your reply.
6.92

###

Assay: Half life in rat liver microsomes at 10 uM preincubated for 10 mins followed by NADPH addition by liquid chromatographic method
Format: ADME, microsome
I'd appreciate it if you could supply t1/2 values for the items below.
Give bare numbers, in h.

// solved cases for t1/2 follow
* O=C(Nc1ccc([N+](=O)[O-])cc1)N[C@@H](Cc1cccnc1)C(=O)NCC1(c2ccccc2)CC1 | 1.83
* N#Cc1ccc(C[C@@H](NC(=O)Nc2ccc(F)cc2)C(=O)NCC2(c3ccc(F)c(Cl)c3)CC2)cc1 | 0.783
* N#Cc1ccc(C[C@H](NC(=O)Nc2ccc([N+](=O)[O-])cc2)C(=O)NCC2(c3ccccc3)CC2)cc1 | 2

Continue with the next compound.
Supply measured t1/2 of `Cc1ccc(C2(CNC(=O)[C@@H](Cc3ccc(C#N)cc3)NC(=O)Nc3ccc(F)cc3)CC2)cc1F` in your reply.
0.983

###

Target: fMet-Leu-Phe receptor (Homo sapiens)
Assay: Agonist activity at human FPR1 expressed in human HL60 cells assessed as induction of calcium mobilization measured every 5 secs for 240 secs by Fluo-4-AM dye based fluorometric method relative to fMLF
Assay type: functional, cell-based
I'd appreciate it if you could supply Efficacy values for the items below.

- N#Cc1ccc(C[C@H](NC(=O)Nc2ccc(F)cc2)C(=O)NCC2(c3ccc(F)c(Cl)c3)CC2)cc1: 55%
- O=C(Nc1ccc([N+](=O)[O-])cc1)N[C@@H](Cc1cccnc1)C(=O)NCC1(c2ccccc2)CC1: 125%
- N#Cc1ccc(C[C@@H](NC(=O)Nc2ccc([N+](=O)[O-])cc2)C(=O)NCC2(c3ccccc3)CC2)cc1: 75%
- N#Cc1ccc(C[C@H](NC(=O)Nc2ccc([N+](=O)[O-])cc2)C(=O)NCC2(c3ccccc3)CC2)cc1: 75%
- O=C(Nc1ccc([N+](=O)[O-])cc1)N[C@H](Cc1cccnc1)C(=O)NCC1(c2ccccc2)CC1: 145%
- N#Cc1ccc(C[C@@H](NC(=O)Nc2ccc(F)cc2)C(=O)NCC2(c3ccc(F)c(Cl)c3)CC2)cc1: 55%
- COc1ccc(NC(=O)N[C@@H](Cc2ccc(C#N)cc2)C(=O)NCC2(c3ccc(F)c(Cl)c3)CC2)cc1: 115%

Supply measured Efficacy of `COc1ccc(NC(=O)N[C@H](Cc2ccc(C#N)cc2)C(=O)NCC2(c3ccc(F)c(Cl)c3)CC2)cc1` in your reply.
100%

###

I'd appreciate it if you could supply Stability values for the items below.
Assay: Metabolic stability in rat liver microsomes assessed as parent compound remaining at 10 uM preincubated for 10 mins followed by NADPH addition measured after 30 mins by liquid chromatographic method
Format: ADME, microsome
Settings: 0.5 h

// solved cases for Stability follow
* N#Cc1ccc(C[C@@H](NC(=O)Nc2ccc([N+](=O)[O-])cc2)C(=O)NCC2(c3ccccc3)CC2)cc1 | 38%
* O=C(Nc1ccc(F)cc1)N[C@@H](Cc1c[nH]c2ccccc12)C(=O)NCC1(c2ccccc2)CC1 | 4%
* Cc1ccc(C2(CNC(=O)[C@H](Cc3ccc(C#N)cc3)NC(=O)Nc3ccc(F)cc3)CC2)cc1F | 39%
* N#Cc1ccc(C[C@H](NC(=O)Nc2ccc(F)cc2)C(=O)NCC2(c3ccc(F)c(Cl)c3)CC2)cc1 | 33%
* O=C(Nc1ccc([N+](=O)[O-])cc1)N[C@H](Cc1c[nH]c2ccccc12)C(=O)NCC1(c2ccccc2)CC1 | 15%

Working through the 7 compounds below one at a time, give Stability for each.
1. COc1ccc(NC(=O)N[C@@H](Cc2ccc(C#N)cc2)C(=O)NCC2(c3ccc(F)c(Cl)c3)CC2)cc1
2. COc1ccc(NC(=O)N[C@@H](Cc2ccc(C#N)cc2)C(=O)NCC2(c3ccc(OC(F)(F)F)cc3)CC2)cc1
3. O=C(Nc1ccc([N+](=O)[O-])cc1)N[C@@H](Cc1cccnc1)C(=O)NCC1(c2ccccc2)CC1
4. O=C(Nc1ccccc1)N[C@@H](Cc1c[nH]c2ccccc12)C(=O)NCC1(c2ccccc2)CC1
5. COc1ccc(NC(=O)N[C@H](Cc2ccc(C#N)cc2)C(=O)NCC2(c3ccc(C)c(F)c3)CC2)cc1
6. O=C(Nc1ccccc1)N[C@H](Cc1c[nH]c2ccccc12)C(=O)NCC1(c2ccccc2)CC1
7. COc1ccc(NC(=O)N[C@H](Cc2ccc(C#N)cc2)C(=O)NCC2(c3ccc(OC(F)(F)F)cc3)CC2)cc1

10%
51%
51%
5%
10%
4%
43%

###

Target: fMet-Leu-Phe receptor (Homo sapiens, UniProt P21462)
Sequence (P21462 whole entry): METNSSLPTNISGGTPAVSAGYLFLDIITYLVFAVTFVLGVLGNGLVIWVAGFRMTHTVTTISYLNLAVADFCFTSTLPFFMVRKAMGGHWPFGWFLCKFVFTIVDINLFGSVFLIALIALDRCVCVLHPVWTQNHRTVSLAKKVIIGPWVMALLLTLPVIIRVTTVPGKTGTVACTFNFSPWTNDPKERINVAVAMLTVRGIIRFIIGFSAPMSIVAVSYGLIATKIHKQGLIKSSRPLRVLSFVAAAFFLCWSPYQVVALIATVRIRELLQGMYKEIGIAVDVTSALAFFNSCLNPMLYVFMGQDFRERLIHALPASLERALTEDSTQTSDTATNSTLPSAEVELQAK
Assay: Agonist activity at human FPR1 expressed in human HL60 cells assessed as induction of calcium mobilization measured every 5 secs for 240 secs by Fluo-4-AM dye based fluorometric method
Assay type: functional, cell-based
Settings: read-out: EC50
One threshold, 2 µM, splits the recorded EC50 values: lower ones are 1 (yes), equal or higher ones are 0 (no).

Before answering, review these 4 worked examples.
• O=C(Nc1ccc(F)cc1)N[C@@H](Cc1c[nH]c2ccccc12)C(=O)NCC1(c2ccccc2)CC1 = 0 (no)
• N#Cc1ccc(C[C@@H](NC(=O)Nc2ccc([N+](=O)[O-])cc2)C(=O)NCC2(c3ccccc3)CC2)cc1 = 0 (no)
• N#Cc1ccc(C[C@H](NC(=O)Nc2ccc([N+](=O)[O-])cc2)C(=O)NCC2(c3ccccc3)CC2)cc1 = 0 (no)
• O=C(Nc1ccccc1)N[C@@H](Cc1c[nH]c2ccccc12)C(=O)NCC1(c2ccccc2)CC1 = 0 (no)

Is it true that EC50 reported for `Cc1ccc(C2(CNC(=O)[C@H](Cc3ccc(C#N)cc3)NC(=O)Nc3ccc(F)cc3)CC2)cc1F` is less than 2 µM?
0 (no)

Is it true that EC50 reported for `O=C(Nc1ccc([N+](=O)[O-])cc1)N[C@H](Cc1cccnc1)C(=O)NCC1(c2ccccc2)CC1` is less than 2 µM?
1 (yes)

Is it true that EC50 reported for `COc1ccc(NC(=O)N[C@@H](Cc2c[nH]c3ccccc23)C(=O)NCC2(c3ccccc3)CC2)cc1` is less than 2 µM?
1 (yes)

Is it true that EC50 reported for `COc1ccc(NC(=O)N[C@@H](Cc2ccc(C#N)cc2)C(=O)NCC2(c3ccc(C)c(F)c3)CC2)cc1` is less than 2 µM?
0 (no)

The values you see were collected from ChEMBL document CHEMBL4130539.
